study.system: UniProtKB P62615
Sequence (P62615 whole entry): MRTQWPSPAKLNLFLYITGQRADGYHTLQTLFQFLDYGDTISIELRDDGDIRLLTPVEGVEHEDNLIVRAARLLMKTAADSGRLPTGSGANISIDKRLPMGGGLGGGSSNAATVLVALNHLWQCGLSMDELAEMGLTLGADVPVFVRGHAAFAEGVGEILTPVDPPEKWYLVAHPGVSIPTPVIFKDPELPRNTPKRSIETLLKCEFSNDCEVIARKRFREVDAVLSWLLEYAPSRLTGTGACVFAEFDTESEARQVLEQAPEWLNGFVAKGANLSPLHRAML
pIC50: −log10 of the molar value.
Recorded measurements of pIC50, one per entry
readout.type: pIC50

compound: Nc1nc(=O)[nH]cc1C#CCNS(=O)(=O)C1CC1
meas.value: 4.44
--
compound: Nc1nc(=O)n(C2CCCS2)cc1C#CCNS(=O)(=O)C1CC1 (racemic) [compound 1, (±)-1]
meas.value: 4.89
--
compound: Nc1nc(=O)[nH]cc1C#CCNS(=O)(=O)C1CCCC1
meas.value: 4.99
--
compound: Nc1nc(=O)[nH]cc1C#CCNS(=O)(=O)C1CCCCC1
meas.value: 5.21

###

Protein target, amino acids: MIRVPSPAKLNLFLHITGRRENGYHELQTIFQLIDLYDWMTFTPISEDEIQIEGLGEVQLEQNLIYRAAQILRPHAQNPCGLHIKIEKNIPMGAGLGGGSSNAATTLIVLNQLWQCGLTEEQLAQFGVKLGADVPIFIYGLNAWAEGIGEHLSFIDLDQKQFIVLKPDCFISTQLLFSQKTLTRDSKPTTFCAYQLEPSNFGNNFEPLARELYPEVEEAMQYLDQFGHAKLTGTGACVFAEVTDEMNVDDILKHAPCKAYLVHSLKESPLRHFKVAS

compound: Nc1nc(=O)n(C2CCCS2)cc1C#CCNS(=O)(=O)C1CC1 (racemic) [compound 1, (±)-1]
IC50, µM: 20

###

study.system: K. pneumoniae IspE (KpIspE) (Klebsiella pneumoniae, UniProt A6TAP2)
Sequence (A6TAP2 whole entry): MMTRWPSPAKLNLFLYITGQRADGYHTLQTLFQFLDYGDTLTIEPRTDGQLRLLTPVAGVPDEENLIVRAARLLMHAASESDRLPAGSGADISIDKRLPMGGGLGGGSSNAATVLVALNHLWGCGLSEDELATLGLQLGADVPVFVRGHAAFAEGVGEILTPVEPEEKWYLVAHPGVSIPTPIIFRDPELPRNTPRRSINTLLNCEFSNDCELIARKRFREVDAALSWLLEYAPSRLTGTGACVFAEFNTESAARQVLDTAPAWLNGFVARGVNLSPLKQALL
Reported IC50 by item:

compound: Nc1nc(=O)[nH]cc1C#CCNS(=O)(=O)C1CC1 [compound 2, 2]
IC50 / µM: 44.3
//
compound: Nc1nc(=O)[nH]cc1C#CCNS(=O)(=O)C1CCCC1 [compound 3, 3]
IC50 / µM: 11.3
//
compound: Nc1nc(=O)n(C2CCCS2)cc1C#CCNS(=O)(=O)C1CC1 (racemic) [compound 1, (±)-1]
IC50 / µM: 8
//
compound: Nc1nc(=O)[nH]cc1C#CCNS(=O)(=O)C1CCCCC1 [compound 4, 4]
IC50 / µM: 5.2
